Molecular target: T1, pUL50 (Human cytomegalovirus, UniProt P16791)
T1 chain: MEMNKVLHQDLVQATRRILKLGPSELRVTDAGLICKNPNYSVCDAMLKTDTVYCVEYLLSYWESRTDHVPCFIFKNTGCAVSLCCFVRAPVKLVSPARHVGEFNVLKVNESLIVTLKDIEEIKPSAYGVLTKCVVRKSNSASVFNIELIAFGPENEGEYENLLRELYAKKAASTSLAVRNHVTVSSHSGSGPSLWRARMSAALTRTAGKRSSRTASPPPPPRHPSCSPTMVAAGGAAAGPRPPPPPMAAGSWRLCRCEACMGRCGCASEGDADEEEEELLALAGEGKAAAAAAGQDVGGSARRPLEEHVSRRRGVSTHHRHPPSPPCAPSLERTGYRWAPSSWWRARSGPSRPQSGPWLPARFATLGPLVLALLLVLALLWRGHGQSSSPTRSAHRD
Experiment: competition with pUL50-pUL53 interaction
EXPERIMENTAL_ENDPOINT: pIC50
One number for each entry, as −log10 of the molar value.

The value of pIC50 measured for the binder LTLHDLHDIFREHPELELKYLNMMKMAIT [pUL53 hook peptide] turned out to be 7.30
